assay: qHTS profiling of the MIPE4 collection as inhibitors of Plasmodium falciparum (3D7) proliferation (AID 743344);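 also: scaled between DMSO vehicle wells and 0.29 µM artemisinin as full inhibition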; conditions: P. falciparum 3D7 in erythrocytes, SYBR Green DNA fluorescence, 72 h; at 28.5 µM unless noted
compounds and their reported parasite growth, % of DMSO control
Write it as a number; the unit % goes unstated.

Example cases with answers are listed next.
compound	parasite growth, % of DMSO control [%]
Fc1ccc(C(OCCN2CCN(CCCc3ccccc3)CC2)c2ccc(F)cc2)cc1	5.99
Nc1nc(F)nc2c1ncn2[C@@H]1O[C@H](CO)[C@@H](O)[C@@H]1O	31
COc1cc2c(c(OC)c1OC)-c1ccc(OC)c(=O)cc1[C@@H](NC(C)=O)CC2	34.7

Okay, next one:
Short answer for CC(O)(CS(=O)(=O)c1ccc(F)cc1)C(=O)Nc1ccc(C#N)c(C(F)(F)F)c1 (stereo not given) : parasite growth, % of DMSO control was 61.4
